Reference for the values: PubChem BioAssay (NCI)

assay: NCI Yeast Anticancer Drug Screen. Data for the mlh1 strain (AID 171);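 further: 0% = growth of vehicle-treated control cultures of the same strain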; settings: S. cerevisiae mlh1 strain growth inhibition; at 3.7 µM
The panel holds about 79,000 compounds, 15% with a hit somewhere; the sample as a whole holds those more often. The source made the active and inactive calls. No stated cut-off is given here; in the data, active means growth inhibition above about 70%; inactive means the rest.
Tick one outcome: active, inactive

Incoming: # outcome recorded in this test, key = C[C@@]12CCC(=O)C=C1CC[C@H]1C2=CC[C@]2(C)C1CC[C@@]2(C)O (stereo partly drawn)
Outgoing: inactive

---

assay: NCI Yeast Anticancer Drug Screen. Data for the cln2 rad14 strain (AID 165);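 further: 0% = growth equal to vehicle treated cultures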; conditions: S. cerevisiae cln2 rad14 strain, at 50.0 µM (retest, dose inferred, filed as 5.0)
The panel holds about 79,000 compounds, 15% with a hit somewhere; the sample as a whole holds those more often. Calls of active or inactive are those of the source. Rule as the data show it: active = growth inhibition above about 70%; inactive = the rest.
Tick one outcome: 1 (active), 0 (inactive)

Here are 3 compounds together with their reported answers.
>  <compound>
O=C(O)C1C2CCC(C2)C1c1ccccc1 (stereo not given)

>  <discreteLabel>
0

$$$$
>  <compound>
CC(=O)OC(C)(C)/C=C/C(=O)[C@](C)(O)[C@H]1[C@H](O)C[C@@]2(C)[C@@H]3CC=C4[C@@H](C[C@H](O)[C@H](O)C4(C)C)[C@]3(C)C(=O)C[C@]12C

>  <discreteLabel>
1

$$$$
>  <compound>
CN(/N=C/c1ccc(Cl)cc1)P(=O)(N1CC1)N1CC1

>  <discreteLabel>
0

$$$$

Incoming: # outcome recorded in this test, key = CCOc1ccc(/C=C/[N+](=O)[O-])cc1[N+](=O)[O-]
Outgoing: 1

Incoming: # outcome recorded in this test, key = CCCCCCCCCCCC(=O)[O][Hg][c]1ccccc1
Outgoing: 1

Incoming: # outcome recorded in this test, key = CCNC(C)(C)C(SS)c1ccc(Br)cc1 (stereo not given)
Outgoing: 0

Incoming: # outcome recorded in this test, key = COc1ccccc1[As]=O (stereo not given)
Outgoing: 1

Incoming: # outcome recorded in this test, key = COc1ccc(NP(=S)(Nc2ccc(OC)cc2)c2ccccc2)cc1
Outgoing: 0

Incoming: # outcome recorded in this test, key = Cc1ccc([PH+](c2ccc(C)cc2)c2ccc(C)cc2)cc1.Cc1ccc([PH+](c2ccc(C)cc2)c2ccc(C)cc2)cc1.[Cl][Hg][Cl]
Outgoing: 1

Incoming: # outcome recorded in this test, key = [Br][Sn]([CH]1CCCCC1)([CH]1CCCCC1)[CH]1CCCCC1
Outgoing: 1

Incoming: # outcome recorded in this test, key = O=[N+]([O-])[O][Tl]([c]1ccccc1)[c]1ccccc1
Outgoing: 0

Incoming: # outcome recorded in this test, key = CC1([CH2][Hg][I])CS(=O)(=O)CC(C)([CH2][Hg][I])O1 (stereo not given)
Outgoing: 1

Incoming: # outcome recorded in this test, key = c1cc[c]([Pb]([c]2ccccc2)[c]2ccccc2)cc1.c1cc[c]([Pb]([c]2ccccc2)[c]2ccccc2)cc1
Outgoing: 1

Incoming: # outcome recorded in this test, key = CCC[CH2][Sn]([Cl])([CH2]Cl)[CH2]CCC
Outgoing: 1

Incoming: # outcome recorded in this test, key = C[Si]1(C)CCCCC2(C1)C(=O)NC(=O)NC2=O
Outgoing: 0

Incoming: # outcome recorded in this test, key = O=[N+]([O-])c1cc([N+](=O)[O-])c2cccnc2c1O
Outgoing: 0

Incoming: # outcome recorded in this test, key = CN(C)CCN(C)P12(Oc3ccccc3O1)Oc1c(Cl)c(Cl)c(Cl)c(Cl)c1O2
Outgoing: 0

Incoming: # outcome recorded in this test, key = Oc1cc[c]([Hg][Cl])cc1
Outgoing: 1

Incoming: # outcome recorded in this test, key = Cc1ccc(C(=O)CCl)o1
Outgoing: 1

Incoming: # outcome recorded in this test, key = C/C(=C\c1ccc2c(c1)OCO2)[N+](=O)[O-]
Outgoing: 1

---

experiment: NCI Yeast Anticancer Drug Screen. Data for the mec2-1 strain (AID 157); settings: S. cerevisiae mec2-1 strain, at 11.0 µM
This is part of a sample that, as a whole, favours compounds with a hit. Of some 79,000 tested, about 15% had one in any assay. The source made the active and inactive calls. No stated cut-off is given here; in the data, active means growth inhibition above about 70%; inactive means the rest.
Tick one outcome: active, inactive

Here are 8 molecules together with their reported answers.
>  <molecule>
CNC(=O)OCC1C2=C(C(=O)C(C)=C(N)C2=O)N2CC3C(N3C)C12OC (stereo not given)

>  <discreteLabel>
inactive

$$$$
>  <molecule>
CC1=C2C(=C[C@@](C)(CO)[C@@H]2O)C(=O)[C@](C)(O)C12CC2

>  <discreteLabel>
inactive

$$$$
>  <molecule>
c1c(N2CCOCC2)ssc1=[N+]1CCOCC1

>  <discreteLabel>
inactive

$$$$
>  <molecule>
Cc1c(N)nc([C@H](CC(N)=O)NC[C@H](N)C(N)=O)nc1C(=O)N[C@H](C(=O)N[C@H](C)[C@@H](O)[C@H](C)C(=O)N[C@H](C(=O)NCCc1nc(-c2nc(C(=O)NCCC[S+](C)C)cs2)cs1)[C@@H](C)O)C(OC1OC(CO)C(O)C(O)C1OC1OC(CO)C(O)C(OC(N)=O)C1O)c1cnc[nH]1 (stereo not given in full)

>  <discreteLabel>
inactive

$$$$
>  <molecule>
CC(C)(C)c1cc([N+](=O)[O-])cc([N+](=O)[O-])c1O

>  <discreteLabel>
inactive

$$$$
>  <molecule>
CC1=C[C@H]2O[C@@H]3C[C@H]4OC(=O)/C=C\C=C\C(C(C)O)OCC(O)C(C)CC(=O)OC[C@@]2(C[C@@H]1O)[C@]4(C)[C@@]31CO1 (stereo not given in full)

>  <discreteLabel>
active

$$$$
>  <molecule>
CCOC(=O)C1([Se]c2ccccc2)CCCC1=O (stereo not given)

>  <discreteLabel>
inactive

$$$$
>  <molecule>
Oc1ccc2nc3ccccc3nc2c1

>  <discreteLabel>
inactive

$$$$

Incoming: # outcome recorded in this test, key = O=C(O)C1C2C=CC(C2)C1c1ccccc1 (stereo not given)
Outgoing: inactive

Incoming: # outcome recorded in this test, key = Cc1c2ccccc2cc2ccccc12
Outgoing: inactive

---

experiment: NCI Yeast Anticancer Drug Screen. Data for the bub3 strain (AID 167); settings: S. cerevisiae bub3 mutant strain, at 50.0 µM, stronger effect = higher value
About 79,000 compounds went through this panel and 15% of them were active in at least one assay; those are over-represented in the sample as a whole. *1 amine or outer side, *2 acyl side, *3 side chain or, on linkers, in order; H or OH if unused. Where a SMILES comes first, the peptide text is derived from it. [ ]: non-standard residue; d: D form. X2 = CC[C@H](C)[C@H](OC(=O)[C@@H](C)[C@@H](CC)N[*:1])C(=O)[*:2]; X3 = C[C@H](N[*:1])C(=O)C(C)(C)C(=O)[*:2]; NMeY = CN[C@@H](Cc1ccc(O)cc1)C(=O)O; NMeL = CN[C@@H](CC(C)C)C(=O)O; NMeV = CN[C@H](C(=O)O)C(C)C
Provide the reported growth inhibition of each item.
One number for each entry, in %.

Known results for compounds:
>  <compound>
c1ccc(N=c2nc(N3CCOCC3)ss2)cc1

>  <growth inhibition [%]>
99.3

$$$$
>  <compound>
Cc1oc2c([N+](=O)[O-])cccc2c1[N+](=O)[O-]

>  <growth inhibition [%]>
52.2

$$$$
>  <compound>
C/C(=N\N=C(/[Se])N1CC2CCC(CC2)C1)c1ccccn1

>  <growth inhibition [%]>
90.3

$$$$
>  <compound>
COC(=O)C1C2c3ccccc3C(c3ccccc32)C1C(=O)OC (centres undefined)

>  <growth inhibition [%]>
14.4

$$$$
>  <compound>
CC[C@H](C)[C@@H]1OC(=O)[C@@H](C)[C@@H](CC)NC(=O)[C@H](C)NC(=O)C(C)(C)C(=O)[C@H](C)NC(=O)[C@H](Cc2ccc(OC)cc2)N(C)C(=O)[C@H](C(C)C)N(C)C(=O)CNC(=O)[C@H](CC(C)C)N(C)C(=O)CNC1=O (cyclo(A[X2]G[NMeL]G[NMeV][NMeY](Me)[X3]))

>  <growth inhibition [%]>
92.7

$$$$
>  <compound>
Cc1ccccc1C[As](C)(=O)O

>  <growth inhibition [%]>
0.25

$$$$
>  <compound>
CC(C)COP(=O)(OCC(C)C)C(=O)Nc1ccc(Cl)cc1

>  <growth inhibition [%]>
25.1

$$$$
>  <compound>
COc1cc(C(c2c(O)c3ccccc3oc2=O)c2c(O)c3ccccc3oc2=O)cc(OC)c1O

>  <growth inhibition [%]>
50

$$$$

Consider the additional compound presented here.
Incoming: For the compound shown here, O=C(O)C1(c2ccccc2)OC1c1ccccc1 (centres undefined) , give the reported growth inhibition.
Outgoing: 64.6

---

assay: NCI Yeast Anticancer Drug Screen. Data for the cln2 rad14 strain (AID 165);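 further: 0% = growth equal to vehicle treated cultures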; settings: S. cerevisiae cln2 rad14 strain, at 50.0 µM, stronger effect = higher value
About 79,000 compounds went through this panel and 15% of them were active in at least one assay; those are over-represented in the sample as a whole.
Could you please classify the records by growth inhibition using these ranges: Low: < 20%; Mid: ≥ 20% and < 80%; High: ≥ 80%

Here are 4 molecules together with their reported answers.
>  <molecule>
CCOCCOC(=O)Cc1ccccc1

>  <discreteLabel>
Mid

$$$$
>  <molecule>
[Cl][Hg][Cl]

>  <discreteLabel>
High

$$$$
>  <molecule>
c1cc2c(cc1NC1=NCCO1)CCCC2

>  <discreteLabel>
Low

$$$$
>  <molecule>
C[As](C)SCCC(CCCCC(=O)O)S[As](C)C (centres undefined)

>  <discreteLabel>
Mid

$$$$

Incoming: Which of the defined bands does the recorded growth inhibition of CC1CC(Br)C(=O)O1 (centres undefined) sit within?
Outgoing: High

Incoming: Which of the defined bands does the recorded growth inhibition of O=C1C=C(Cl)C(=O)C=C1Cl sit within?
Outgoing: High

Incoming: Which of the defined bands does the recorded growth inhibition of COc1cc[c]([Sb]([Br])([CH]=C(C)C)([CH]=C(C)C)[CH]=C(C)C)cc1 sit within?
Outgoing: Mid

Incoming: Which of the defined bands does the recorded growth inhibition of CCCCCCCCCCCCCCCc1cccc(O)c1O sit within?
Outgoing: Low

Incoming: Which of the defined bands does the recorded growth inhibition of Nc1nc(N)c(-c2ccc(Cl)c(Cl)c2)c(CP(Cl)(Cl)(Cl)Br)n1 sit within?
Outgoing: Low
